Biological target: Cuphea wrightii KAS IIIa (β-ketoacyl ACP synthase IIIa), recombinant wild-type, GenBank U15935 (Cuphea wrightii, UniProt P49244)
Construct: His6 (N); made in house; host or cells: E. coli BL21(DE3)pLys, pET 15b vector
Sequence (P49244 68-400 limits assumed): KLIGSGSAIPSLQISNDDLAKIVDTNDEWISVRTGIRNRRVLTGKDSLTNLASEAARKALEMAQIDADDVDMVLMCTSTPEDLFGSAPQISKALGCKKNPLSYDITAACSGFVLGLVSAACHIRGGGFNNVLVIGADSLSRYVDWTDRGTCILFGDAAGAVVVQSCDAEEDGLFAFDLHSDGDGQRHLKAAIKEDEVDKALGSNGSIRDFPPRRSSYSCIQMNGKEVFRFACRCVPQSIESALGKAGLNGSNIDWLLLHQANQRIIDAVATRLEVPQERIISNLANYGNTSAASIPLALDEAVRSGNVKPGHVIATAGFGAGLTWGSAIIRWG
Experiment: Inhibition of recombinant wild-type KAS IIIa by acyl ACPs and acyl CoAs ([1-14C] acetate incorporation into acetoacetyl ACP; Lineweaver-Burk)
Assay type: biochemical
Details: acyl CoA 10-50 μM; pH 7.6, 30° C., 5 minutes; Lineweaver-Burk; read-out: Ki (acyl CoAs)
experimental_readout: pKi
By convention, pKi is the negative base-10 log of a molar concentration.

compound | pKi
CCCCCCCCCC(=O)SCCNC(=O)CCNC(=O)[C@H](O)C(C)(C)COP(=O)(O)OP(=O)(O)OC[C@H]1O[C@@H](n2cnc3c(N)ncnc32)[C@H](O)[C@@H]1OP(=O)(O)O [acyl CoA C10] | 4.90
CCCCCCCC(=O)SCCNC(=O)CCNC(=O)[C@H](O)C(C)(C)COP(=O)(O)OP(=O)(O)OC[C@H]1O[C@@H](n2cnc3c(N)ncnc32)[C@H](O)[C@@H]1OP(=O)(O)O [acyl CoA C8] | 4.61
CCCCCC(=O)SCCNC(=O)CCNC(=O)[C@H](O)C(C)(C)COP(=O)(O)OP(=O)(O)OC[C@H]1O[C@@H](n2cnc3c(N)ncnc32)[C@H](O)[C@@H]1OP(=O)(O)O [acyl CoA C6] | 4.37

Now for the compound whose pKi we want.
Inquiry: Which pKi is reported for this compound? CCCCCCCCCCCC(=O)SCCNC(=O)CCNC(=O)[C@H](O)C(C)(C)COP(=O)(O)OP(=O)(O)OC[C@H]1O[C@@H](n2cnc3c(N)ncnc32)[C@H](O)[C@@H]1OP(=O)(O)O [acyl CoA C12]
Reply text: 4.70
